- system_tested: CypH (Homo sapiens)
- Construct: PPIH (UniProtKB Entry O43447: residues 1–177); His6 with TEV site (2BT vector leader) (N); made in house; host or cells: E. coli BL21(DE3)
- Sequence (O43447 whole entry, the tested form may be a part): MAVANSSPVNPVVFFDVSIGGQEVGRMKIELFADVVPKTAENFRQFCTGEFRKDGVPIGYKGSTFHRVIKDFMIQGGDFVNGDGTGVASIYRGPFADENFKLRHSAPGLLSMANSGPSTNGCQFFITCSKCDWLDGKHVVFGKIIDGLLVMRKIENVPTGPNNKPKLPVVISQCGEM
- measurement_protocol: Chymotrypsin coupled prolyl-isomerase assay
- Type: biochemical
- test_conditions: wild-type CypH; read-out: Wild-Type Cyclophilin Prolyl Isomerase Inhibition IC50 Values, CypH
property_label: pIC50
Numbers only, as −log10 of the molar value.

1) NC(=O)[C@@H]1CCNC(=O)/C=C/C(=O)N2CCC[C@](Cc3ccccc3)(C2)C(=O)N[C@@H](Cc2ccc(-c3cccc(B(O)O)c3)cc2)C(=O)NCc2ccccc2CC(=O)N1: 5.40

Read the next record carefully.
Which pIC50 is reported with CypH (Homo sapiens) for this entry: "CC(=O)c1ccc(-c2ccc(C[C@@H]3NC(=O)[C@]4(Cc5ccccc5)CCCN(C4)C(=O)/C=C/C(=O)NCC[C@@H](C(=O)NCCOCCN)NC(=O)Cc4ccccc4CNC3=O)cc2)cc1" ?
4.10

====

Task for the reader: assign each of the following compounds its reported pIC50.
- system_tested: CypG (Homo sapiens, UniProt Q13427)
- Construct: PPIG (UniProtKB Entry Q13427: residues 1–179); His6 with thrombin site (pET28a LIC leader) (N); host or cells: E. coli BL21(DE3)
- Sequence (Q13427 1-179): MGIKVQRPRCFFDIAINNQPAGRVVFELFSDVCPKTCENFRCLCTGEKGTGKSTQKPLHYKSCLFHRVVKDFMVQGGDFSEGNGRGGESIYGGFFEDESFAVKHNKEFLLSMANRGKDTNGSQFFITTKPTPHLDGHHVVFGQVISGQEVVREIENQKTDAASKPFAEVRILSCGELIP
- measurement_protocol: Chymotrypsin coupled prolyl-isomerase assay
- Type: biochemical
- test_conditions: prolyl-isomerase inhibition, 5 nM cyclophilin; read-out: IC50 CypG
pIC50: −log10 of the molar value.

Use these answered entries as a reference point.
1. NCCOCCNC(=O)[C@@H]1CCNC(=O)/C=C/C(=O)N2CCC[C@](Cc3ccccc3)(C2)C(=O)N[C@@H](Cc2ccc(-c3ccc(CC(C(=O)O)C(=O)O)cc3)cc2)C(=O)NCc2ccccc2CC(=O)N1: < 4.00
2. NCCOCCNC(=O)[C@@H]1CCNC(=O)/C=C/C(=O)N2CCC[C@](Cc3ccccc3)(C2)C(=O)N[C@@H](Cc2ccc(-c3ccc(C#CC(=O)O)cc3)cc2)C(=O)NCc2ccccc2CC(=O)N1: ~4.60
3. C[N+]1=C(C=CC=CC=C2N(CCCCCC(=O)NCCNC(=O)C3CCNC(=O)C=CC(=O)N4CCCC(Cc5ccccc5)(C4)C(=O)NC(Cc4ccc(-c5ccc(CC(C(=O)O)C(=O)O)cc5)cc4)C(=O)NCc4ccccc4CC(=O)N3)c3ccccc3C2(C)C)C(C)(C)c2ccccc21 (stereo not shown): ~5.00

// switching to the query compound
# query: pIC50 of entry "NCCOCCNC(=O)[C@@H]1CCNC(=O)/C=C/C(=O)N2CCC[C@](Cc3ccccc3)(C2)C(=O)N[C@@H](Cc2ccc(-c3ccc(C(CC(=O)O)CC(=O)O)cc3)cc2)C(=O)NCc2ccccc2CC(=O)N1"
< 4.30

====

- system_tested: CypD (Homo sapiens, UniProt P30405)
- Sequence (P30405 45-207): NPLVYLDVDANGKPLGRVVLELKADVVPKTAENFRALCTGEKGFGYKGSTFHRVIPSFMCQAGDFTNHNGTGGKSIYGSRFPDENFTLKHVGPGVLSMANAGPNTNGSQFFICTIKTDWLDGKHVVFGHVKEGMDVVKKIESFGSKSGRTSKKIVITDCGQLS
- measurement_protocol: Chymotrypsin coupled prolyl-isomerase assay
pIC50: −log10 of the molar value.
I would appreciate it if you labelled entries rule met when pIC50 is 5 or higher, otherwise rule not met.

Some solved cases for reference:
1. NCCCOCCOCCOCCCNC(=O)C1CCNC(=O)C=CC(=O)N2CCCC(C2)C(=O)NC(Cc2ccco2)C(=O)NCc2ccccc2CC(=O)N1 (centres unmarked): rule met
2. NCCOCCNC(=O)C1CCNC(=O)C=CC(=O)N2CCCC(C2)C(=O)NC(Cc2ccco2)C(=O)NCc2ccccc2CC(=O)N1 (centres unmarked) [Compound A7]: rule not met
3. NCCOCCNC(=O)[C@@H]1CCNC(=O)/C=C/C(=O)N2CCC[C@](Cc3ccccc3)(C2)C(=O)N[C@@H](Cc2ccc(C(=O)c3ccccc3)cc2)C(=O)NCc2ccccc2CC(=O)N1: rule met
4. NCCOCCNC(=O)C1CCCNC(=O)C=CC(=O)N2CCCC(C2)C(=O)NC(Cc2ccco2)C(=O)NCc2ccccc2CC(=O)N1 (centres unmarked): rule not met
5. NCCOCCNC(=O)C1CCNC(=O)C=CC(=O)N2CCCC(C2)C(=O)NC(Cc2ccco2)C(=O)NCc2ccccc2CC(=O)N1 (centres unmarked) [Compound A21]: rule not met
6. NCCOCCNC(=O)[C@@H]1CCNC(=O)/C=C/C(=O)N2CCC[C@](Cc3ccccc3)(C2)C(=O)N[C@@H](Cc2ccc(-c3ccc(C(CC(=O)O)CC(=O)O)cc3)cc2)C(=O)NCc2ccccc2CC(=O)N1: rule met
7. NCCOCCNC(=O)C1CCNC(=O)C=CC(=O)N2CCCC(C2)C(=O)NC(Cc2ccco2)C(=O)NCc2ccccc2CC(=O)N1 (centres unmarked) [JOMBt]: rule not met

As a next step, examine the compound that follows.
Could you tell me if the measured pIC50 of "NCCOCCNC(=O)[C@@H]1CCNC(=O)/C=C/C(=O)N2CCC[C@](Cc3ccccc3)(C2)C(=O)N[C@@H](Cc2ccc(-c3ccc(CCC(=O)O)cc3)cc2)C(=O)NCc2ccccc2CC(=O)N1" reaches 5 or more?
rule met

====

- system_tested: CypE (Homo sapiens, UniProt Q9UNP9)
- Construct: PPIE (UniProtKB Entry Q9UNP9: residues 131–301); host or cells: E. coli BL21(DE3)
- Sequence (Q9UNP9 131-301): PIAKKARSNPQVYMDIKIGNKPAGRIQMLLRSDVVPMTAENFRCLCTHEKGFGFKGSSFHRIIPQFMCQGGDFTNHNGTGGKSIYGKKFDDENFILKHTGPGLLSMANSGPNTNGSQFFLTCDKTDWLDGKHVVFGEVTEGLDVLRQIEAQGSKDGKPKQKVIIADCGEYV
- measurement_protocol: Chymotrypsin coupled prolyl-isomerase assay
- Type: biochemical
- test_conditions: wild-type CypE; read-out: Wild-Type Cyclophilin Prolyl Isomerase Inhibition IC50 Values, CypE
property_label: IC50 (nM)
Give bare numbers, in nM.

Below: 3 molecules and their reported IC50.
1) CC(=O)c1ccc(-c2ccc(C[C@@H]3NC(=O)[C@]4(Cc5ccccc5)CCCN(C4)C(=O)/C=C/C(=O)NCC[C@@H](C(=O)NCCOCCN)NC(=O)Cc4ccccc4CNC3=O)cc2)cc1 [Compound B15]: 150
2) C[N+]1=C(C=CC=CC=C2N(CCCCCC(=O)NCCNC(=O)C3CCNC(=O)C=CC(=O)N4CCCC(Cc5ccccc5)(C4)C(=O)NC(Cc4ccc(-c5ccc(C(CC(=O)O)CC(=O)O)cc5)cc4)C(=O)NCc4ccccc4CC(=O)N3)c3ccccc3C2(C)C)C(C)(C)c2ccccc21 (centres unmarked) [Compound B53-Cy5]: 1100
3) NCCOCCNC(=O)C1CCNC(=O)C=CC(=O)N2CCCC(C2)C(=O)NC(Cc2ccco2)C(=O)NCc2ccccc2CC(=O)N1 (centres unmarked) [JOMBt]: 23000

Quick one: give me IC50 for each item below, same order please.
1. NCCOCCNC(=O)C1CCNC(=O)C=CC(=O)N2CCCC(Cc3ccccc3)(C2)C(=O)NC(Cc2ccco2)C(=O)NCc2ccccc2CC(=O)N1 (centres unmarked) [Compound A26]
2. NCCOCCNC(=O)[C@@H]1CCNC(=O)/C=C/C(=O)N2CCC[C@](Cc3ccccc3)(C2)C(=O)N[C@@H](Cc2ccc(-c3ccc(CC(C(=O)O)C(=O)O)cc3)cc2)C(=O)NCc2ccccc2CC(=O)N1 [Compound B52]

[800, 310]

====

- system_tested: CypD K118E (Homo sapiens, UniProt P30405, K118E)
- Sequence (P30405 45-207 K118E): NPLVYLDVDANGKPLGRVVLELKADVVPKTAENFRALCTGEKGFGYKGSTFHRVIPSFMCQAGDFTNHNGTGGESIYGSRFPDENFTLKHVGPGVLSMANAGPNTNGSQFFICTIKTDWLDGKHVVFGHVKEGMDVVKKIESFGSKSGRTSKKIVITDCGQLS
- measurement_protocol: Chymotrypsin coupled prolyl-isomerase assay
- test_conditions: prolyl-isomerase inhibition
Could you please report measured pIC50 for the items listed next?
Answers are plain numbers, as −log10 of the molar value.

Solved cases below.
1) NCCOCCNC(=O)[C@@H]1CCNC(=O)/C=C/C(=O)N2CCC[C@](Cc3ccccc3)(C2)C(=O)N[C@@H](Cc2ccc(-c3ccc(C(CC(=O)O)CC(=O)O)cc3)cc2)C(=O)NCc2ccccc2CC(=O)N1: 5.40
2) NCCOCCNC(=O)[C@@H]1CCNC(=O)/C=C/C(=O)N2CCC[C@](Cc3ccccc3)(C2)C(=O)N[C@@H](Cc2ccc(-c3ccc(CC(C(=O)O)C(=O)O)cc3)cc2)C(=O)NCc2ccccc2CC(=O)N1: 6.52
3) NCCOCCNC(=O)[C@@H]1CCNC(=O)/C=C/C(=O)N2CCC[C@](Cc3ccccc3)(C2)C(=O)N[C@@H](Cc2ccc(-c3ccc(C#CC(=O)O)cc3)cc2)C(=O)NCc2ccccc2CC(=O)N1: 7.22

Would you be so kind as to report pIC50 for each listed record?
1. NCCOCCNC(=O)[C@@H]1CCNC(=O)/C=C/C(=O)N2CCC[C@](Cc3ccccc3)(C2)C(=O)N[C@@H](Cc2ccc(-c3ccc(CCC(=O)O)cc3)cc2)C(=O)NCc2ccccc2CC(=O)N1
2. NCCCc1ccc(-c2ccc(C[C@@H]3NC(=O)[C@]4(Cc5ccccc5)CCCN(C4)C(=O)/C=C/C(=O)NCC[C@@H](C(=O)NCCOCCN)NC(=O)Cc4ccccc4CNC3=O)cc2)cc1

[6.74, 5.96]

====

Provide the reported pIC50 of each item.
- system_tested: CypA (Homo sapiens, UniProt P62937)
- Construct: PPIA (UniProtKB Entry P62937: residues 1–165); made in house; host or cells: E. coli BL21(DE3)
- Sequence (P62937 whole entry, the tested form may be a part): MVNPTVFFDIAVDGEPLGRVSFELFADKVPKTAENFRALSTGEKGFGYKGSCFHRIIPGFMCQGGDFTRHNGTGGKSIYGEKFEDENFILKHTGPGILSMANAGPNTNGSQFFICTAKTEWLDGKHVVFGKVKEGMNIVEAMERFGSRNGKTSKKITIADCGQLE
- measurement_protocol: Chymotrypsin coupled prolyl-isomerase assay
- Format: biochemical
- test_conditions: CypA column within the mutant section (comparator for CypA E81S/K82R); read-out: Mutant Cyclophilin Prolyl Isomerase Inhibition IC50 Values, CypA
Answers are plain numbers, as −log10 of the molar value.

1) NCCOCCNC(=O)[C@@H]1CCNC(=O)/C=C/C(=O)N2CCC[C@](Cc3ccccc3)(C2)C(=O)N[C@@H](Cc2ccc(-c3ccc(C#CC(=O)O)cc3)cc2)C(=O)NCc2ccccc2CC(=O)N1 [Compound B25]: 7.43

Please look at the following compound next.
Query the reported pIC50 for CypA (Homo sapiens, UniProt P62937); item: NCCOCCNC(=O)[C@@H]1CCNC(=O)/C=C/C(=O)N2CCC[C@](Cc3ccccc3)(C2)C(=O)N[C@@H](Cc2ccc(-c3ccc(CCC(=O)O)cc3)cc2)C(=O)NCc2ccccc2CC(=O)N1 [Compound B23]
7.10
